- System: MCF7
- run_description: Antiproliferative activity against human MCF7 cells measured after 72 hrs by SRB assay
- Assay type: functional
Parameter: log10 of GI50. Scope: all listed entries.
reported_endpoint: log10 of GI50 (log10 of the value in µM)

>>> print(df.to_string())
                                   molecule  measurement
0     O=C1c2ccccc2C(=O)c2c(O)c(CCl)cc(O)c21        -0.23
1                 COc1ccc2c(c1)C(=O)C=CC2=O         1.46
2  CC1(C)CCC2=C(O1)c1ccccc1C(=O)C2=O [LAPACHONE]         1.09
3  COC(=O)/C=C(/CC1=C(CCC(=O)CC2(C)OCCO2)C(=O)c2ccccc2C1=O)OC         1.45
4                 CC1=CC(=O)c2cccc(O)c2C1=O         0.15
5  CC1=CC(=O)c2c(O)cc(C)c(C(=O)C(Cl)Cl)c2C1=O         1.41
6                CC1=C(Br)C(=O)c2ccccc2C1=O         1.28
7        O=C1C=CC(=O)c2c(O)cccc21 [JUGLONE]         1.51
8              O=C1C=C(Cl)C(=O)c2c(O)cccc21         1.19
9  O=C1C=CC(=O)c2c(O)ccc(O)c21 [NAPHTHAZALIN]        -0.37

Reference source: ChEMBL document CHEMBL5120892
